# study_target: BRAF V600E (Homo sapiens, UniProt P15056, V600E)
# Construct: expressed in transfected cells
# Sequence (P15056 whole entry V600E): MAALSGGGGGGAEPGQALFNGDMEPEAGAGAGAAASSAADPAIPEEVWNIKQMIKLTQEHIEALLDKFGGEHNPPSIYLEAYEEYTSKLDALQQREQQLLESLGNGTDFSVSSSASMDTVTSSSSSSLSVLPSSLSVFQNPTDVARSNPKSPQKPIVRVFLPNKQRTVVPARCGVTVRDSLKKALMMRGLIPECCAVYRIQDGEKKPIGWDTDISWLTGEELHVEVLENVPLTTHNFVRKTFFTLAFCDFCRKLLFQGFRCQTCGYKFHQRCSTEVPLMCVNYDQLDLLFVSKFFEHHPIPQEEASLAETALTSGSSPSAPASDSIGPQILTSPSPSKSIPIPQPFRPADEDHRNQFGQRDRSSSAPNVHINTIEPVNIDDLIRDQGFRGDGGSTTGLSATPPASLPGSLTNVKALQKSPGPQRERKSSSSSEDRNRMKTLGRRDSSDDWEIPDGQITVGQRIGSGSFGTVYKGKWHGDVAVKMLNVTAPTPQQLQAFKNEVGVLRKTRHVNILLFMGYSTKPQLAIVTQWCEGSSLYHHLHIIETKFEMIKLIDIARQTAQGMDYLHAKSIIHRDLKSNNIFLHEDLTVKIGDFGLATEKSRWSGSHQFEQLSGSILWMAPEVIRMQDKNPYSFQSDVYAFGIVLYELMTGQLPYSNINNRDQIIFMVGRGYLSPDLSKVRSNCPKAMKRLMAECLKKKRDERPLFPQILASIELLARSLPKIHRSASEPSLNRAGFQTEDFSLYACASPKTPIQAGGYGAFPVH
# experimental_protocol: Cellular assay of target protein degradation, T-Rex 293 cells stably transfected with HA-BRAF_V600E (HA immunofluorescence, high content imaging)
# Assay type: cell-based
# experimental_setup: half maximal degradation, T-Rex 293 HA-BRAF V600E; read-out: BRaf V600E DC50
assay_readout: DC50

[[record]]
compound = "O=C1CC[C@H](N2Cc3cc(N4C[C@H]5CN(CC6CCN(c7ccc(-c8cnc9[nH]cc(C(=O)c%10c(F)ccc(NS(=O)(=O)N%11CC[C@@H](F)C%11)c%10F)c9c8)cc7)CC6)C[C@H]5C4)ccc3C2=O)C(=O)N1 [Compound 57]"
measured_value = "< 5 nM"


Please give DC50, item by item, for the list that follows.
1. O=C1CC[C@H](N2Cc3cc(N4CCC(CN5CCC6(CCN(c7ccc(-c8cnc9[nH]cc(C(=O)c%10c(F)ccc(NS(=O)(=O)N%11CC[C@@H](F)C%11)c%10F)c9c8)cc7F)CC6)C5)CC4)ccc3C2=O)C(=O)N1 [Compound 258]
2. O=C1CC[C@H](N2Cc3cc(C[C@H](O)CN4CCC(c5ccc(-c6cnc7[nH]cc(C(=O)c8c(F)ccc(NS(=O)(=O)N9CC[C@@H](F)C9)c8F)c7c6)cc5)CC4)ccc3C2=O)C(=O)N1 [Compound 109]
3. O=C1CCC(N2Cc3cc(N4CC5(CN(CCOc6ccc(-c7cnc8[nH]cc(C(=O)c9c(F)ccc(NS(=O)(=O)N%10CC[C@@H](F)C%10)c9F)c8c7)cn6)C5)C4)ccc3C2=O)C(=O)N1 (stereo partly shown) [Compound 158]

Output line:
["< 5 nM", "5 to 50 nM", "5 to 50 nM"]
